- target_system: T1, monkey TIM-3 protein with hFc tag (cTIM-3-hFc protein) (monkey; human)
- T1 construct: Made in HEK293 cells; also called monkey TIM-3 extracellular domain protein; not shown: human IgG Fc fragment (hFc) of the pCpC vector
- T1 chain: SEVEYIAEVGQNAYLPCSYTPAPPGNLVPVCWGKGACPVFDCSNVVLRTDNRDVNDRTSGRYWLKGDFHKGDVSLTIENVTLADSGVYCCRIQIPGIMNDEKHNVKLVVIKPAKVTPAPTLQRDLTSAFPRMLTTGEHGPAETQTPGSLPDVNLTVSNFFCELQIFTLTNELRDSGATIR
- protocol_summary: ELISA, coated cTIM-3-hFc; antibody 0 nM (blank)
- Description: The amino acid sequence 22-200 of the extracellular domain of the human TIM-3 protein described in the step of Example 1 (as shown in SEQ ID NO. 71 in the sequence listing) was cloned into a pCpC vector having a human IgG Fc fragment (hFc), and transfected into HEK293 cells. […] An ELISA plate reader (TiterMax 384plus, Molecular Device) was used to read the A450 nm value.
# OD450 per record follows
Note: the reply should be a number with no unit written.

>>> value("57F4E5 (TIM-3 antibody purified from hybridoma, chimeric antibody of Example 2) (antibody, V domains shown, From hybridoma of Harbour H2L2 transgenic mice: human variable regions, rat constant regions) VH: EVQLVESGGGLVQPGGSLRLSCAASGFTFSSYWMSWVRQAPGKGLEWVANIKQDGSEKYYVDSVKGRFTISRDSAKNSLYLQMNSLRAEDTAMYFCARDSNFFDYWGQGTLVTVSS VL: ETVMTQSPATLSVSPGERATLSCRASQSVSSNLAWYQRKPGQAPRLLIYFSSTRATGIPARFSGSGSGTEFTLTISSLQSEDFAVYYCQQYNNWPLTFGGGTKVEIK")
0.56
>>> value("7A4F10 (TIM-3 antibody purified from hybridoma, chimeric antibody of Example 2) (antibody, V domains shown, From hybridoma of Harbour H2L2 transgenic mice: human variable regions, rat constant regions) VH: EVQLLESGGGLVQPGGSLRLSCAASGFTFRTHLISWVRQAPGKGLEWVAAITGSGGSTYYADSVKGRFIISRDNSKNTLFLQMNSLRAEDTAVYYCAKDGGSGSYDDFWGQGTLVTVSS VL: ETVLTQSPVTLSLSPGERATLSCRASQSVGSYLAWYQQKPGQAPRLLIYDASNRATGIPARFSGSGSGTDFTLTISSLEPEDFAVYYCQQRSNWPPTFGQGTKVEIK")
0.54

Turning now to a further record.
Query block: Which measured OD450 value corresponds to 34B6D8 (TIM-3 antibody purified from hybridoma, chimeric antibody of Example 2) (antibody, V domains shown, From hybridoma of Harbour H2L2 transgenic mice: human variable regions, rat constant regions) VH: EVQLVESGGGLVQPGGSLRLSCAASGFTFSTYWMTWVRQAPGKRLEWVANIKQGGGDKYYVDSVKGRFTISTDNAKNSLYLQMNSLRAEDTAVYYCARGSNWFDPWGQGTLVTVSS VL: EIVMTQSPATLSMSPGERATLSCRASQSVYDNLAWYQQKPGQAPRLLIYGASTRATGIPARFSGSGSGTEFTLTISSLQSEDFALYYCQQYTHWPITFGQGTRLEIK ?
Result block: 0.58
